# System: colon 38 cells
# Assay Notes: In vitro antitumor test against colon 38 cells (MTT)
# Assay type: cell-based
# Experimental Conditions: 72 h, concentration at which 50% of mouse colon 38 cells are inhibited, 3 days
# Method: In vitro Antitumor Test Against Colon 38 Cells (Mouse Colon Cancer Cells) […] Thereafter, a solution of MTT[3-(4,5-dimethylthiazol-2-yl)-2,5-diphenyltetrazolium bromide] […] The absorbance at 540 nm was determined with a microplate reader and the absorbance was taken as an index of the number of viable cells. […] T: absorbance of well containing a test compound C: absorbance of well containing no test compound
hey, just use true (1) if measured IC50 is less than 0.5 µg/mL, otherwise false (0)

[
  {
    "Molecule": "N#Cc1c[nH]c2c(NS(=O)(=O)c3ccc(N)cc3)cc(Br)cc12",
    "Study System": "colon 38 cells",
    "Assigned Label": "false (0)"
  },
  {
    "Molecule": "O=[N+]([O-])c1ccc(S(=O)(=O)Nc2cccc3c(Cl)c[nH]c23)cc1",
    "Study System": "colon 38 cells",
    "Assigned Label": "false (0)"
  },
  {
    "Molecule": "C[S+]([O-])Cc1ccc(S(=O)(=O)Nc2cccc3c(Cl)c[nH]c23)cc1 (centres unmarked)",
    "Study System": "colon 38 cells",
    "Assigned Label": "true (1)"
  },
  {
    "Molecule": "O=S(=O)(Nc1cccc2c(Cl)c[nH]c12)c1ccc(NC2CC2)nc1",
    "Study System": "colon 38 cells",
    "Assigned Label": "false (0)"
  },
  {
    "Molecule": "COC(=O)Nc1ccc(S(=O)(=O)Nc2cccc3c(Cl)c[nH]c23)cc1",
    "Study System": "colon 38 cells",
    "Assigned Label": "false (0)"
  },
  {
    "Molecule": "CN(Cc1ccc(S(=O)(=O)Nc2cccc3c(Cl)c[nH]c23)cc1)S(C)(=O)=O",
    "Study System": "colon 38 cells",
    "Assigned Label": "true (1)"
  },
  {
    "Molecule": "CS(=O)(=O)CCc1ccc(S(=O)(=O)Nc2cccc3c(C#N)c[nH]c23)cc1",
    "Study System": "colon 38 cells",
    "Assigned Label": "true (1)"
  },
  {
    "Molecule": "N#Cc1cccc(S(=O)(=O)Nc2cccc3c(C#N)c[nH]c23)c1",
    "Study System": "colon 38 cells",
    "Assigned Label": "true (1)"
  },
  {
    "Molecule": "O=S(=O)(Nc1cccc2c(Cl)c[nH]c12)c1cccc(Cl)c1",
    "Study System": "colon 38 cells",
    "Assigned Label": "true (1)"
  },
  {
    "Molecule": "CCNS(=O)(=O)c1ccc(S(=O)(=O)Nc2cccc3c(Cl)c[nH]c23)cc1",
    "Study System": "colon 38 cells",
    "Assigned Label": "true (1)"
  },
  {
    "Molecule": "CC(=O)Nc1ccc(S(=O)(=O)Nc2cccc3c(Cl)c[nH]c23)cc1Cl",
    "Study System": "colon 38 cells",
    "Assigned Label": "false (0)"
  },
  {
    "Molecule": "CC(=O)Nc1ccc(S(=O)(=O)Nc2ccc(C)c3c(Cl)c[nH]c23)cc1",
    "Study System": "colon 38 cells",
    "Assigned Label": "true (1)"
  },
  {
    "Molecule": "NC(=O)c1ccc(S(=O)(=O)Nc2cccc3c(Cl)c[nH]c23)cc1",
    "Study System": "colon 38 cells",
    "Assigned Label": "true (1)"
  },
  {
    "Molecule": "N#Cc1c[nH]c2c(NS(=O)(=O)c3ccc(Br)cn3)cccc12",
    "Study System": "colon 38 cells",
    "Assigned Label": "true (1)"
  },
  {
    "Molecule": "NS(=O)(=O)Cc1ccc(S(=O)(=O)Nc2ccc(Cl)c3c(Cl)c[nH]c23)cc1",
    "Study System": "colon 38 cells",
    "Assigned Label": "true (1)"
  },
  {
    "Molecule": "Cc1cncc(S(=O)(=O)Nc2cccc3c(C#N)c[nH]c23)c1",
    "Study System": "colon 38 cells",
    "Assigned Label": "true (1)"
  },
  {
    "Molecule": "COc1ccc(S(=O)(=O)Nc2cccc3cn[nH]c23)cc1",
    "Study System": "colon 38 cells",
    "Assigned Label": "false (0)"
  },
  {
    "Molecule": "N#Cc1ccc(NS(=O)(=O)c2ccc(N)cc2)c2[nH]cc(Cl)c12",
    "Study System": "colon 38 cells",
    "Assigned Label": "true (1)"
  },
  {
    "Molecule": "CS(=O)(=O)CCc1ccc(S(=O)(=O)Nc2cccc3c(Cl)c[nH]c23)cc1",
    "Study System": "colon 38 cells",
    "Assigned Label": "true (1)"
  },
  {
    "Molecule": "CSCc1ccc(S(=O)(=O)Nc2cccc3c(Cl)c[nH]c23)cc1",
    "Study System": "colon 38 cells",
    "Assigned Label": "true (1)"
  },
  {
    "Molecule": "CS(=O)(=O)Cc1ccc(S(=O)(=O)Nc2cccc3c(Cl)c[nH]c23)cc1",
    "Study System": "colon 38 cells",
    "Assigned Label": "true (1)"
  },
  {
    "Molecule": "CN(C)CCNc1ccc(S(=O)(=O)Nc2cccc3c(Cl)c[nH]c23)cn1",
    "Study System": "colon 38 cells",
    "Assigned Label": "true (1)"
  },
  {
    "Molecule": "CN(C)S(=O)(=O)Nc1ccc(S(=O)(=O)Nc2cccc3c(Cl)c[nH]c23)cc1",
    "Study System": "colon 38 cells",
    "Assigned Label": "true (1)"
  },
  {
    "Molecule": "Cc1c[nH]c2c(NS(=O)(=O)c3ccc(S(C)(=O)=O)cc3)cccc12",
    "Study System": "colon 38 cells",
    "Assigned Label": "true (1)"
  },
  {
    "Molecule": "Nc1ccc(S(=O)(=O)Nc2cnc3c(Cl)cccc3n2)cc1 [CQS, 2-sulfanylamido-5-chloroquinoxaline, reference compound]",
    "Study System": "colon 38 cells",
    "Assigned Label": "false (0)"
  },
  {
    "Molecule": "CC(=O)c1c[nH]c2c(NS(=O)(=O)c3cccc(Cl)c3)cccc12",
    "Study System": "colon 38 cells",
    "Assigned Label": "false (0)"
  },
  {
    "Molecule": "CC(C)Nc1ccc(S(=O)(=O)Nc2cccc3c(Cl)c[nH]c23)cn1",
    "Study System": "colon 38 cells",
    "Assigned Label": "true (1)"
  },
  {
    "Molecule": "CC(=O)N(C)c1ccc(S(=O)(=O)Nc2cccc3c(Cl)c[nH]c23)cc1",
    "Study System": "colon 38 cells",
    "Assigned Label": "true (1)"
  },
  {
    "Molecule": "O=S(=O)(Nc1cccc2c(Cl)c[nH]c12)c1ccc(NCCO)nc1",
    "Study System": "colon 38 cells",
    "Assigned Label": "true (1)"
  },
  {
    "Molecule": "N#Cc1c[nH]c2c(NS(=O)(=O)c3ccco3)cccc12",
    "Study System": "colon 38 cells",
    "Assigned Label": "true (1)"
  },
  {
    "Molecule": "CNS(=O)(=O)c1ccc(S(=O)(=O)Nc2cccc3c(Cl)c[nH]c23)cc1",
    "Study System": "colon 38 cells",
    "Assigned Label": "true (1)"
  },
  {
    "Molecule": "CS(=O)(=O)c1ccc(S(=O)(=O)Nc2cccc3c(Cl)c[nH]c23)cc1",
    "Study System": "colon 38 cells",
    "Assigned Label": "true (1)"
  },
  {
    "Molecule": "Nc1ccc(S(=O)(=O)Nc2cccc3c(Cl)c[nH]c23)cn1",
    "Study System": "colon 38 cells",
    "Assigned Label": "true (1)"
  },
  {
    "Molecule": "CN(c1ccc(S(=O)(=O)Nc2cccc3c(Cl)c[nH]c23)cc1)S(C)(=O)=O",
    "Study System": "colon 38 cells",
    "Assigned Label": "true (1)"
  }
]
